Target: 5'-nucleotidase (Homo sapiens, UniProt P21589, T376A)
Sequence (P21589 27-549 T376A limits assumed): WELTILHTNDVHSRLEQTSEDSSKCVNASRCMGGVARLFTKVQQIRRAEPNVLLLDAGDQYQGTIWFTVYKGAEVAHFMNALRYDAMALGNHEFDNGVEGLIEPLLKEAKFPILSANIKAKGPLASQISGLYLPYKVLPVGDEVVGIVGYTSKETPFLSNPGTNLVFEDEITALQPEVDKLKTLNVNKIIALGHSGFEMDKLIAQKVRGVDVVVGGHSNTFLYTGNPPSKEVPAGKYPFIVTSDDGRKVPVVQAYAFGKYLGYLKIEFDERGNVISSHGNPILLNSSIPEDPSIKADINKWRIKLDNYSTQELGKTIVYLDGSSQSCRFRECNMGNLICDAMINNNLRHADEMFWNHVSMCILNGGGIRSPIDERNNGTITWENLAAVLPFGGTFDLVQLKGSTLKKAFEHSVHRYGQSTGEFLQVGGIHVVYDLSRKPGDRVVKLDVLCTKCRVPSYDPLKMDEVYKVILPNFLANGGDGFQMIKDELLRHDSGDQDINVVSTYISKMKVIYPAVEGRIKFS
Assay: Inhibition of human flag-tagged CD73 Thr376Ala mutant (1 to 552 residues) assessed as reduction in conversion of AMP to adenosine incubated for 10 mins followed by AMP addition measured after 30 mins by RapidFire mass spectrometric analysis
pIC50: −log10 of the molar value.
Use Fulfilled when the recorded pIC50 is no lower than 6; use Not fulfilled when it is lower.

For orientation, consider the following solved cases.
* O=S1(=O)NC(Nc2cccc(O)c2)=Nc2c(O)cc(F)cc21 | Fulfilled
* O=S1(=O)N=C(Nc2cc(F)c3[nH]ccc3c2)Nc2c(O)cc(Cl)c(Br)c21 | Fulfilled
* CN(C)C(=O)Cc1cccc(NC2=Nc3c(O)cc(Cl)cc3S(=O)(=O)N2)c1 | Not fulfilled
* O=S1(=O)NC(Nc2cccc3[nH]ccc23)=Nc2c(O)cc(Cl)cc21 | Fulfilled

Shifting focus to the compound that follows.
Check the entry O=S1(=O)NC(Nc2cccc3[nH]ncc23)=Nc2c1cc(Cl)c(F)c2O : does pIC50 equal or exceed 6?
Fulfilled
